target: human uPAR (uPAR-Fc) (Homo sapiens, UniProt Q03405); construct: comprising amino acids Leu23-Arg303 according to UniProt entry Q03405.1; purchased R&D Systems 10378-UK-100; assay: Surface plasmon resonance (SPR) assay, single cycle kinetics; assay type: binding; conditions: pKD category for uPAR SPR activity assay; uPAR-Fc on Protein A-Chip, single cycle kinetics, 25°C; read-out: pKD CAT (converted)
Sequence (Q03405 23-303): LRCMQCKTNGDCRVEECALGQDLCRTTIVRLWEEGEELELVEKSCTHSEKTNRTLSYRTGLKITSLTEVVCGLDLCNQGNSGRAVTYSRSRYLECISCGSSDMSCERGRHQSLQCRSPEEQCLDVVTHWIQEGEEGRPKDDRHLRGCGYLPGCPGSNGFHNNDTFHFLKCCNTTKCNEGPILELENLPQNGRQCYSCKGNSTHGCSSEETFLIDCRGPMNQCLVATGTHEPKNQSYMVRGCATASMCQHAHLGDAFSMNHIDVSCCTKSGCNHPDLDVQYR
Where a SMILES comes first, the peptide text is derived from it. Bridges are numbered along the chain shown (N, C = ends). Side-chain parts run from the residue outwards. [ ]: non-standard residue; d: D form. The star is where a group is joined. DOTA = O=C(O)CN1CCN(CC(=O)O)CCN(CC(=O)*)CCN(CC(=O)O)CC1; Pro(cis-4-F) = O=C(O)[C@@H]1C[C@H](F)CN1; Dopa = N[C@@H](Cc1ccc(O)c(O)c1)C(=O)O; Hyp = O=C(O)[C@@H]1C[C@@H](O)CN1; Pentanoyl(4-Me) = CC(C)CCC(=O)*; Cit = NC(=O)NCCC[C@H](N)C(=O)O; Aic = NC1(C(=O)O)Cc2ccccc2C1; Butoxycarbonyl = CCCCOC(=O)*; Nva = CCC[C@H](N)C(=O)O; Pentanoyl = CCCCC(=O)*
outcome_measure: Kd

What value of Kd on human uPAR (uPAR-Fc) (Homo sapiens, UniProt Q03405) does CCCCC(=O)N[C@H]1CSSC[C@@H](C(N)=O)NC(=O)[C@H](CCC)NC(=O)[C@H]([C@@H](C)CC)NC(=O)[C@@H]2C[C@@H](O)CN2C(=O)[C@@H]2CCCN2C(=O)C2(Cc3ccccc3C2)NC(=O)[C@H](Cc2ccc(O)cc2)NC(=O)[C@H](CCCCNC(=O)CN2CCN(CC(=O)O)CCN(CC(=O)O)CCN(CC(=O)O)CC2)NC(=O)[C@H](CCCNC(N)=O)NC1=O [UPAR-417] (Pentanoyl-C[Cit]K(DOTA)Y[Aic]P[Hyp]I[Nva]C-NH2; disulfide 1-10) have?
> 100 nM

Thanks! And CC[C@H](C)[C@@H]1NC(=O)[C@@H](C)NC(=O)[C@@H]2CCCN2C(=O)[C@H](Cc2ccccc2)NC(=O)[C@H](Cc2ccc(O)cc2)NC(=O)[C@H](CCCNC(N)=O)NC(=O)[C@H](CCCNC(N)=O)NC(=O)[C@@H](NC(=O)CCC(C)C)CSSC[C@@H](C(N)=O)NC(=O)[C@H](CC(C)C)NC1=O [UPAR-445] ({Pentanoyl(4-Me)}-C[Cit][Cit]YFP[dA]ILC-NH2; disulfide 1-10) ?
< 1.58 nM

Thanks! And CCCCOC(=O)N[C@H]1CSSC[C@@H](C(N)=O)NC(=O)[C@H](CCC)NC(=O)[C@H]([C@@H](C)CC)NC(=O)[C@@H]2C[C@@H](O)CN2C(=O)[C@@H]2C[C@H](F)CN2C(=O)[C@H](Cc2ccccc2)NC(=O)[C@H](Cc2ccc(O)c(O)c2)NC(=O)[C@H](CCCCNC(=O)[C@@H](CC(=O)O)NC(=O)CN2CCN(CC(=O)O)CCN(CC(=O)O)CCN(CC(=O)O)CC2)NC(=O)[C@H]([C@@H](C)O)NC1=O [UPAR-459] (Butoxycarbonyl-CTK([dD-DOTA])[Dopa]F[Pro(cis-4-F)][Hyp]I[Nva]C-NH2; disulfide 1-10) ?
< 1.58 nM
